- Tested on: P388 leukemia ip, CD2F1 mice, survival T/C
- test name: NCI In Vivo Anticancer Drug Screen. Data for tumor model P388 Leukemia (intraperitoneal) in CD2F1 (CDF1) mice
- recorded conditions: endpoint: median survival time; dose: 50.0 mg/kg/injection; schedule: Q01DX009 (ip); vehicle: Klucel (hydroxypropylcellulose) (HPC); higher = longer survival
Inconclusive results and toxic doses are left out.
measurement name: T/C

CC#CC#C/C(=C/C=CC(=O)OC)SC    101 % of control
O=c1[nH]nnc2ccccc12    105 % of control
CC(C)N1CC(CCO)C(c2ccccc2)(c2ccccc2)C1 (stereo unspecified)    99 % of control
O=C(/C=C/c1ccccc1)c1ccccc1    100 % of control
CCN(CC)Cc1c[nH]c2ccccc12    97 % of control
COc1ccc(NC(=S)Nc2ccccc2C(F)(F)F)c(OC)c1    99 % of control
COP(=O)(OC)C1(C(C)(C)C)CO1 (stereo unspecified)    99 % of control
Cc1ccc2c(ccc(CC(=S)[S-])[n+]2C)c1    120 % of control
COc1ccc(OC)c(C(N)=O)c1    102 % of control
Fc1ccc(N=Cc2cccs2)cc1    110 % of control
O=C(C(=O)N1CCC(O)CC1)c1c[nH]c2ccccc12    98 % of control

* * *

- Test system: P388 leukemia ip, CD2F1 mice, survival T/C
- test name: NCI In Vivo Anticancer Drug Screen. Data for tumor model P388 Leukemia (intraperitoneal) in CD2F1 (CDF1) mice
- recorded conditions: endpoint: median survival time; dose: 50.0 mg/kg/injection; schedule: Q01DX009 (ip); vehicle: saline
Inconclusive results and toxic doses are left out. The calls were made as follows: active = survival T/C of 150% or more; inactive = T/C below 125% in these data.
Outcomes: yes (active), no (inactive)

O=CC=O    no
C/C=C/COc1ccccc1C=O    no
O=C1CSC(=S)N1c1ccc(F)c(F)c1    no
CCCS(=O)(=O)Nc1ccc(Nc2c3ccccc3nc3ccccc23)c(OC)c1    yes
Cc1cc(OC(=O)Nc2ccc(C)c([N+](=O)[O-])c2)c(Br)cc1Cl    no
c1ccc2n[nH]nc2c1    no
CC(=O)CS(C)(=O)=O    no
CSC(=S)N/N=C(\C)c1ccccn1    no
O=C(O)c1ccc(OCc2ccccc2)cc1    no
CC(=O)Nc1ccc(S(=O)(=O)NC(C)=O)cc1    no
O=C1CN(CN2CCOCC2)C(=O)CN1CN1CCOCC1    no
CC1(C)Oc2cc3oc(C(=O)O)cc(=O)c3cc2-c2ccccc21    no
CCc1cccc(CC)c1N1C(=O)CSCC1=O    no
Nc1cn(C2CC(O)C(CO)O2)c(=O)[nH]c1=O (centres undefined)    no

* * *

- Tested on: P388 leukemia ip, CD2F1 mice, survival T/C
- test name: NCI In Vivo Anticancer Drug Screen. Data for tumor model P388 Leukemia (intraperitoneal) in CD2F1 (CDF1) mice
- recorded conditions: endpoint: median survival time; dose: 200.0 mg/kg/injection; schedule: Q04DX002 (ip); vehicle: suspension in saline; higher = longer survival
Toxic doses and inconclusive results are not listed.
Measured T/C accompanies every entry in the list below.
measurement name: T/C

CSc1nnc2nc3c4ccccc4c4ccccc4c3nn12    98 % of control
CCC(c1ccc(OCC(=O)N(CCCl)CCCl)cc1)C(CC)c1ccc(OCC(=O)N(CCCl)CCCl)cc1 (centres undefined)    97 % of control
C=C1C(=O)CCC1C#N (centres undefined)    93 % of control
O=Nc1c(O)n(-c2ccccc2)c(=O)[nH]c1=O    101 % of control

* * *

- Tested on: P388 leukemia ip, CD2F1 mice, survival T/C
- test name: NCI In Vivo Anticancer Drug Screen. Data for tumor model P388 Leukemia (intraperitoneal) in CD2F1 (CDF1) mice
- recorded conditions: endpoint: median survival time; dose: 200.0 mg/kg/injection; schedule: Q04DX002 (ip); vehicle: saline; higher = longer survival
Toxic doses and inconclusive results are not listed.
measurement name: T/C

Cc1cccc(C2(Br)C(=O)c3ccccc3C2=O)c1    103 % of control
COCCOCCOCCOCCOCCOCCOCCOCCOCCOCCOCCOCCOCCOCCn1cc(F)c(=O)[nH]c1=O    101 % of control
NNc1ccc2nnc(Cl)n2n1    102 % of control
CC(=O)Nc1cc2nc[nH]c2cn1    106 % of control
C/C=C(\CCNCCCC)[Si](C)(C)C    101 % of control

* * *

- Test system: P388 leukemia ip, CD2F1 mice, survival T/C
- test name: NCI In Vivo Anticancer Drug Screen. Data for tumor model P388 Leukemia (intraperitoneal) in CD2F1 (CDF1) mice
- recorded conditions: endpoint: median survival time; dose: 50.0 mg/kg/injection; schedule: Q01DX005 (ip); vehicle: saline; higher = longer survival
Inconclusive results and toxic doses are left out.
measurement name: T/C

CCCCC(CC)C(=O)NCCCN(C)C (centres undefined)    99 % of control
C1CCN2CSCCCC2C1 (centres undefined)    100 % of control
CC1CN(Cc2ccccc2)CCC1N1CCCCC1 (centres undefined)    99 % of control
C[N+](C)(C)CCC[N+]1(C)CC2CCCCC2C1 (centres undefined)    107 % of control
Cc1cc[n+](-c2c3c(nc4ccccc24)-c2ccccc2C(C)(C)C3)cc1    94 % of control
C=CCC(C=C=CCN(C)C)CO (centres undefined)    103 % of control
Cc1cc(C(N)=O)c[n+](C)c1    100 % of control
Nc1nc2c([nH]c(=O)n2C2OC(CO)C(O)C2O)c(=O)[nH]1 (centres undefined)    109 % of control
CC1OCN2C(C)CCCC12 (centres undefined)    108 % of control
Cc1occ(Br)c(=O)c1O    104 % of control
CCCNCC(=O)Nc1ccccc1NC(=O)CNCCC    100 % of control
CC1(C)OC(COCCOCCOCCCC#N)C(COCCOCCOCCCC#N)O1 (centres undefined)    103 % of control
CCC(CC)C(=O)NN(C)C    101 % of control
Cc1cccc(CNc2cccc(C)n2)n1    105 % of control

* * *

- System: P388 leukemia ip, CD2F1 mice, survival T/C
- test name: NCI In Vivo Anticancer Drug Screen. Data for tumor model P388 Leukemia (intraperitoneal) in CD2F1 (CDF1) mice
- recorded conditions: endpoint: median survival time; dose: 50.0 mg/kg/injection; schedule: Q01DX005 (ip); vehicle: Klucel (hydroxypropylcellulose) (HPC); higher = longer survival
Toxic doses and inconclusive results are not listed.
Below, each of the compounds is paired with its reported T/C value.
measurement name: T/C

NC(=O)N/N=C/Cn1ccc(=O)n(C/C=N/NC(N)=O)c1=O    91 % of control
Cc1cccc([B-]23OCC[N+]2(CNC(=O)C2=C(O)C4(O)C(=O)C5=C(O)c6c(O)cccc6C(C)(O)C5CC4C(N(C)C)C2=O)CCO3)c1 (configuration not stated)    97 % of control
CCCCCCOc1cc2c(cc1C(C)c1ccc(OC)cc1)OCO2 (configuration not stated)    103 % of control
CC1=C(C(C)(C)C)C(=O)c2ccccc2C1=O    100 % of control
CC1CCCC2=C1C(O)c1c(N)cccc1C2O (configuration not stated)    96 % of control
COC(=O)C1=C(C(=O)OC)P(I)(c2ccccc2)(c2ccccc2)N(C)C1(c1ccccc1)c1ccccc1    100 % of control
CC1=NN(C(=O)c2ccccc2)C(C)(C)C1    113 % of control
COc1c(C)n(CCCCCCn2ccc(=O)c(OC)c2C)ccc1=O    92 % of control
COC(=O)C12CCCC1(C(=O)OC)N2N1C(=O)c2ccccc2C1=O (configuration not stated)    100 % of control
CN(C)c1ccc2nc3c(C(=O)O)cc(=O)c(O)c-3oc2c1    103 % of control
CN1C(=O)NC(=O)C(=C2C=C(c3ccccc3)C(C#N)(c3ccccc3)C(c3ccccc3)=C2)C1=O (configuration not stated)    97 % of control
CCC(=O)Nc1nnc(SCCCCCCCCCCSc2nnc(NC(=O)CC)s2)s1    89 % of control
COc1ccc(Cc2cc(N=NC(N)=O)c(C)cc2O)cc1    97 % of control
CCn1c2ccccc2c2cc(/C=N/Nc3cc(C)nc4cc5c(cc34)OCO5)ccc21    100 % of control
COc1ccc2oc3cc4c(c(O)c3c(=O)c2c1CC=C(C)C)C=CC(C)(C)O4    88 % of control
Cn1c(=O)oc2cc([N+](=O)[O-])c(Cl)cc21    95 % of control
NC1=NN(S(=O)(=O)c2ccc(Br)cc2)CC1    89 % of control
[NH-][n+]1c2c(nc3ccccc31)-c1cccc3cccc-2c13    103 % of control
CC(C)(C)c1ccc(/C=N/NC(=O)c2cccnc2)cc1    98 % of control
CC(=O)NS(=O)(=O)c1ccc(NN=Nc2ccccc2Cl)cc1    95 % of control
O=C1C=C\C(=C/C=C\C=C2/C=CC(=O)O2)O1    93 % of control
CCOC(=O)Nc1ccc(S(=O)(=O)c2ccc(Nc3ccnc4cc(Cl)ccc34)cc2)cc1    94 % of control

Provenance of the data: PubChem BioAssay AID330
